The reader will find reported Kd values listed item by item below.
# System: T1, human Stn1, full length, wild type (human, UniProt Q9H668 1-368)
# T1 construct: human Stn1 (hStn1), subunit of the human CST complex, full length; The methods describe the his-MBP tag for hStn1N only and say that full-length hStn1 was overexpressed and purified by the same procedure; also called hStn1; hStn1(WT); not shown: His (by 'the same procedure' as hStn1N), N-terminal, cleaved; MBP (by 'the same procedure' as hStn1N), N-terminal, cleaved
# T1 sequence (looked up): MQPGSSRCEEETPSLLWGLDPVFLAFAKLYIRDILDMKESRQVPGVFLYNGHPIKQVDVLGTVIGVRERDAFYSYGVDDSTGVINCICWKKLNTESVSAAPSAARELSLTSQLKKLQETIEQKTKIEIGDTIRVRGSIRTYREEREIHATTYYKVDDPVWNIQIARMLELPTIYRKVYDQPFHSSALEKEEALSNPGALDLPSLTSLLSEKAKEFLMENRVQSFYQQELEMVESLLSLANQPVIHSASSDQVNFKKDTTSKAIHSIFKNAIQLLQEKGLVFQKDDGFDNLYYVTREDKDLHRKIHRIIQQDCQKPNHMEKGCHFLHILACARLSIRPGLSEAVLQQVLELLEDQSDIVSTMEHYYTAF
# Protocol: ITC; MicroCal iTC200; hTen1 at 125 µM injected into the cell with hStn1 at 12 µM; 20°C; 300 mM KCl, 25 mM Tris-HCl pH 7.5, 1 mM DTT, 5% glycerol; 2.47 µL injections
# Test Context: both partners purified
Report the figure in µM without appending any unit label.

Consider the worked cases shown below.
Binder: human Ten1 (Y115A), full length (natural protein, UniProt Q86WV5 1-123, looked up, human Ten1, full length, with Y115A; also called hTen1(Y115A); source: purified (pure, homogeneous)) MMLPKPGTYYLPWEVSAGQVPDGSTLRTFGRLCLYDMIQSRVTLMAQHGSDQHQVLVCTKLVEPFHAQVGSLYIVLGELQHQQDRGSVVKARVLTCVEGMNLPLLEQAIREQRLAKQERGGSQ
Kd / µM: 0.014

Binder: human Ten1 (R119Q), full length (natural protein, UniProt Q86WV5 1-123, looked up, human Ten1, full length, with R119Q; also called hTen1(R119Q); source: purified (pure, homogeneous)) MMLPKPGTYYLPWEVSAGQVPDGSTLRTFGRLCLYDMIQSRVTLMAQHGSDQHQVLVCTKLVEPFHAQVGSLYIVLGELQHQQDRGSVVKARVLTCVEGMNLPLLEQAIREQRLYKQEQGGSQ
Kd / µM: 0.013

Binder: human Ten1 (R27Q), full length (natural protein, UniProt Q86WV5 1-123, looked up, human Ten1, full length, with R27Q; also called hTen1(R27Q); source: purified (pure, homogeneous)) MMLPKPGTYYLPWEVSAGQVPDGSTLQTFGRLCLYDMIQSRVTLMAQHGSDQHQVLVCTKLVEPFHAQVGSLYIVLGELQHQQDRGSVVKARVLTCVEGMNLPLLEQAIREQRLYKQERGGSQ
Kd / µM: 0.033

Now consider a different binder.
Task item: Given the binder human Ten1, full length, wild type (natural protein, UniProt Q86WV5 1-123, looked up, human Ten1 (hTen1), subunit of the human CST complex, full length; Purification is described only for the complex with hStn1N (cells mixed before lysis; tags cleaved by TEV); also called hTen1; hTen1(WT); source: E. coli BL21-CodonPlus(DE3) RIPL, purified; not shown: His, N-terminal, cleaved) MMLPKPGTYYLPWEVSAGQVPDGSTLRTFGRLCLYDMIQSRVTLMAQHGSDQHQVLVCTKLVEPFHAQVGSLYIVLGELQHQQDRGSVVKARVLTCVEGMNLPLLEQAIREQRLYKQERGGSQ , what is its reported Kd?
Reply: 0.0063
